- test_target: T1, catalytic domain of MMP-14 (cdMMP-14) (human, UniProt P50281 114-287, limits assumed, biotinylated (Sulfo-NHS-LC-Biotin) where immobilised via streptavidin)
- T1 construct: also called matrix metalloproteinase-14 catalytic domain; wild-type MMP-14
- experiment_summary: ELISA, Fab titrated on immobilised MMP-14 catalytic domain, anti-Fab-HRP
pEC50: −log10 of the molar value.
measured_property: pEC50

binder	assay_result
Fab 3D9 (Fab, V domains shown, not shown: His tag at the C-terminus of the heavy chain) VH: EVQLVESGGGLVQPGGSLRLSCAASGFNIYSSSIHWVRQAPGKGLEWVASIYSSYGYTYYADSVKGRFTISADTSKNTAYLQMNSLRAEDTAVYYCARRLMAYHGSCSSRLCQTAISPQRYAMDYWGQGTLVTVSS VL: DIQMTQSPSSLSASVGDRVTITCRASQSVSSAVAWYQQKPGKAPKLLIYSASSLYSGVPSRFSGSRSGTDFTLTISSLQPEDFATYYCQQSSYSLITFGQGTKVEIKR	8.19
Fab 2H9 (Fab, V domains shown, not shown: His tag at the C-terminus of the heavy chain) VH: EVQLVESGGGLVQPGGSLRLSCAASGFNIYYSSMHWVRQAPGKGLEWVASIYPYSGYTYYADSVKGRFTISADTSKNTAYLQMNSLRAEDTAVYYCARGTSFQVRCVLYRLLSPGRYVMDYWGQGTLVTVSS VL: DIQMTQSPSSLSASVGDRVTITCRASQSVSSAVAWYQQKPGKAPKLLIYSASSLYSGVPSRFSGSRSGTDFTLTISSLQPEDFATYYCQQSGYSYPFTFGQGTKVEIKR	6.92
